target: Adrenergic receptor beta (Homo sapiens) (UniProt P08588+P07550+P13945); experiment: Intrinsic Sympathomimetic Activity (ISA) determined from the ratio of the maximal compound and isoprenaline induced tachycardia in anesthetized ganglion blocked cats following intravenous administration; type: functional, organism-based; details: Felis catus; target entry is the homologue from another species
Hi! Just check whether ISA is below 0.6. Below gives satisfied, equal or above gives not satisfied.

• CC1CC(=O)NN=C1c1ccc(NC(=O)CNCC(O)COc2ccccc2C#N)cc1 (stereo not given) = satisfied
• N#Cc1ccccc1OCC(O)CNCC(=O)Nc1ccc(C2=NNC(=O)CC2)cc1 (stereo not given) = satisfied
• Br.CC1CC(=O)NN=C1c1ccc(NC(=O)CCNCC(O)COc2ccccc2)cc1 (stereo not given) = not satisfied
• CC1CC(=O)NN=C1c1ccc(NC(=O)CCNCC(O)COc2ccccc2C#N)cc1 (stereo not given) = not satisfied
• Cc1cccc(OCC(O)CNCCC(=O)Nc2ccc(C3=NNC(=O)CC3C)cc2)c1C (stereo not given) = satisfied

* * *

molecular target: Adrenergic receptor beta (Homo sapiens) (UniProt P08588+P07550+P13945); assay: Intrinsic Sympathomimetic Activity (ISA) determined from the ratio of the maximal compound and isoprenaline induced tachycardia in anesthetized ganglion blocked cats following intravenous administration; type: functional, organism-based; conditions: Felis catus; target entry is the homologue from another species
assay.endpoint: ISA

• COc1ccccc1OCC(O)CNCCC(=O)Nc1ccc(C2=NNC(=O)CC2)cc1 (stereo not given) = 0.6
• Cc1ccccc1OCC(O)CNCC(=O)Nc1ccc(C2=NNC(=O)CC2)cc1 (stereo not given) = 0.55
• CC(C)(C)NCC(O)COc1ccccc1-c1ccc(NN)nn1 (stereo not given) [PRIZIDILOL] = 0.2
• O=C1CCC(c2ccc(NC(=O)CNCC(O)COc3cccc4ccccc34)cc2)=NN1 (stereo not given) = 0.1
• Cc1ccccc1OCC(O)CNCCC(=O)Nc1ccc(C2=NNC(=O)CC2C)cc1 (stereo not given) = 0.59
• CC1CC(=O)NN=C1c1ccc(NC(=O)CCNCC(O)COc2ccc(CCOCC3CC3)cc2)cc1 (stereo not given) = 0.05
• COc1ccccc1OCC(O)CNCC(=O)Nc1ccc(C2=NNC(=O)CC2C)cc1 (stereo not given) = 0.37
• COc1ccccc1OCC(O)CNCCC(=O)Nc1ccc(C2=NNC(=O)CC2C)cc1 (stereo not given) = 0.48
• C=CCOc1ccccc1OCC(O)CNC(C)C (stereo not given) = 0.2

* * *

biological target: Adrenergic receptor beta (Homo sapiens) (UniProt P08588+P07550+P13945); assay: Intrinsic Sympathomimetic Activity (ISA) determined from the ratio of the maximal compound and isoprenaline induced tachycardia in anesthetized ganglion blocked cats following intravenous administration; assay type: functional, organism-based; details: Felis catus; target entry is the homologue from another species
assay.endpoint: ISA

* COc1ccccc1OCC(O)CNCC(=O)Nc1ccc(C2=NNC(=O)CC2)cc1 (stereo not given) | 0.42
* COCCc1ccc(OCC(O)CNCCC(=O)Nc2ccc(C3=NNC(=O)CC3C)cc2)cc1 (stereo not given) | 0.04
* Cc1ccccc1OCC(O)CNCCC(=O)Nc1ccc(C2=NNC(=O)CC2)cc1 (stereo not given) | 0.14
* CC1CC(=O)NN=C1c1ccc(NC(=O)CCNCC(O)COc2ccccc2N2CCOCC2)cc1 (stereo not given) | 0.24
* CC1CC(=O)NN=C1c1ccc(NC(=O)CCNCC(O)COc2cccc3[nH]ccc23)cc1.Cl (stereo not given) | 0.46

* * *

target: Beta-1 adrenergic receptor (Homo sapiens) (UniProt P08588); conditions: Felis catus
Sequence (P08588 whole entry, looked up): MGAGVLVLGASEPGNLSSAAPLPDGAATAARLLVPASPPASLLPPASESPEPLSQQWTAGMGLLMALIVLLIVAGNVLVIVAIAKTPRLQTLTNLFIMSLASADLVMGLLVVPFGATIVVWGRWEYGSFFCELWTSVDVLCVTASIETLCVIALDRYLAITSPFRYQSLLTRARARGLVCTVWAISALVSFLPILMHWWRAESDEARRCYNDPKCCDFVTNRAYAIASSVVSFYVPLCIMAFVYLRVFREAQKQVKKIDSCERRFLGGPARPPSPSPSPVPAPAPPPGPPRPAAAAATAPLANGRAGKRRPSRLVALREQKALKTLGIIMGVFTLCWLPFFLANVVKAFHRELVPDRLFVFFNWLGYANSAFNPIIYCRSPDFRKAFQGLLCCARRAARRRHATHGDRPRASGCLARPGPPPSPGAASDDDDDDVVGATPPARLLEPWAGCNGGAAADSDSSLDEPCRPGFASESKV
Description: Beta-1-adrenoceptor antagonsim of compound expressed as inhibition of isoprenaline-induced tachycardia in the ganglion-blocked anesthetized cat
assay.endpoint: log10 of ID50 (log10 of the value in µmol/kg)

- COc1ccccc1OCC(O)CNCCC(=O)Nc1ccc(C2=NNC(=O)CC2C)cc1 (stereo unspecified): -0.15
- C=CCOc1ccccc1OCC(O)CNC(C)C (stereo unspecified): -1.40
- COCCc1ccc(OCC(O)CNCCC(=O)Nc2ccc(C3=NNC(=O)CC3C)cc2)cc1 (stereo unspecified): 0.30
- COc1ccccc1OCC(O)CNCC(=O)Nc1ccc(C2=NNC(=O)CC2)cc1 (stereo unspecified): 1.00
- CC1CC(=O)NN=C1c1ccc(NC(=O)CCNCC(O)COc2ccccc2N2CCOCC2)cc1 (stereo unspecified): -0.30
- CC1CC(=O)NN=C1c1ccc(NC(=O)CCNCC(O)COc2ccc(CCOCC3CC3)cc2)cc1 (stereo unspecified): 0.00
- Cc1cccc(OCC(O)CNCCC(=O)Nc2ccc(C3=NNC(=O)CC3C)cc2)c1C (stereo unspecified): -0.22
- COc1ccccc1OCC(O)CNCC(=O)Nc1ccc(C2=NNC(=O)CC2C)cc1 (stereo unspecified): 0.41
- CC1CC(=O)NN=C1c1ccc(NC(=O)CCNCC(O)COc2cccc3[nH]ccc23)cc1.Cl (stereo unspecified): -1.05
- COc1ccccc1OCC(O)CNCCC(=O)Nc1ccc(C2=NNC(=O)CC2)cc1 (stereo unspecified): -0.15
- CC(C)(C)NCC(O)COc1ccccc1-c1ccc(NN)nn1 (stereo unspecified) [PRIZIDILOL]: -1.22
- CC1CC(=O)NN=C1c1ccc(NC(=O)CCNCC(O)COc2ccccc2S(C)(=O)=O)cc1.Cl (stereo unspecified): 0.60
- Cc1ccccc1OCC(O)CNCCC(=O)Nc1ccc(C2=NNC(=O)CC2)cc1 (stereo unspecified): 0.15

* * *

target: Beta-1 adrenergic receptor (Homo sapiens); settings: Felis catus
A collection of compounds and their measured ID50
assay.endpoint: ID50

* Cc1ccccc1OCC(O)CNCC(=O)Nc1ccc(C2=NNC(=O)CC2C)cc1 (stereo not drawn) | > 5 µmol/kg
* N#Cc1ccccc1OCC(O)CNCCC(=O)Nc1ccc(C2=NNC(=O)CC2)cc1 (stereo not drawn) | > 1 µmol/kg
* CC1CC(=O)NN=C1c1ccc(NC(=O)CNCC(O)COc2ccccc2C#N)cc1 (stereo not drawn) | > 8 µmol/kg
